Taken from the supplement of paper PMC8728848.

molecular target: Gal6S(b1-3)GlcNAc; experiment: glycan array binding signal (z-score within array); higher = stronger binding; conditions: glycan notation: IUPAC condensed, linker removed
Many of the other results were omitted from the sample, so the strongest signals are more common in it than they were.
Measured glycan array binding signal (z-score), listed per entry.

In the examples that follow, each entry is paired with its recorded glycan array binding signal (z-score).
## Task Need glycan array binding signal (z-score), item CM2 (Cordyceps militaris) (protein) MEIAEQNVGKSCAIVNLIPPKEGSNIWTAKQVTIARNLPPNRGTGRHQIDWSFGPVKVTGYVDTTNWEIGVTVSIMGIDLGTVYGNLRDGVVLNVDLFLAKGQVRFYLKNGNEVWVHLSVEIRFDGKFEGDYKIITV
## Result -0.595

## Task Need glycan array binding signal (z-score), item Morniga (Morus nigra) (protein) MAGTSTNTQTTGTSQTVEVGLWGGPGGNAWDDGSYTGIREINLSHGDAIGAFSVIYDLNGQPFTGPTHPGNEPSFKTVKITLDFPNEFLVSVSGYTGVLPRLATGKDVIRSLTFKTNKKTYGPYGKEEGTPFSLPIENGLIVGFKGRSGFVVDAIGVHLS
## Result -0.338

Next binder, glycan array binding signal (z-score) to be filled in.
## Task Need glycan array binding signal (z-score), item LSectin (Mus musculus), Q8BNX1 (protein) MNTGEYNKLGSAIEEVSRGQLGRWECYKQRLFFLVLALLVATVLWALILSTLLSSASSKLRVLLSHQDLLRTNASEQKMTLSSLKDDIGACRNCCSVTKAQLQTTLAEFKDIQAKLMEQESILKELQERVTQDLAKASRDRENIRSELFQALEAVKRQNSSCEQCPPSWLPFQGSCYYFSETQATWDTAQSYCGGQGAHLVIVRGLNEQGFLSQHTRGRGYWLGLRAVRHLNKIQGYRWVDGASLNFSHWNSGEPNDSRGHEDCIMMLHSGLWNDAPCTNERDGWICEKRSSCY
## Result -0.188
